Consider the following molecules; for each one, report its pEC50.
- targetEntity: Mas-related G-protein coupled receptor member X1 (Homo sapiens, UniProt Q96LB2)
- Sequence (Q96LB2 whole entry): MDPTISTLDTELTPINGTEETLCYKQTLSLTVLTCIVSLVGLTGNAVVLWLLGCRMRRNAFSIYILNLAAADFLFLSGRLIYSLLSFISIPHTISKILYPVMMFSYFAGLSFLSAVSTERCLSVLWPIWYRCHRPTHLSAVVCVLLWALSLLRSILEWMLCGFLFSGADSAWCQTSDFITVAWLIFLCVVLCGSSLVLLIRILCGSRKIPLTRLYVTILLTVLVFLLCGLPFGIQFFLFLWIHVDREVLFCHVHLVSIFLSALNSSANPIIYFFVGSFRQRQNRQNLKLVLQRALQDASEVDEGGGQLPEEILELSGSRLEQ
- measurementProtocol: Positive allosteric modulator activity at human MRGPRX1 expressed in HEK293 cells in presence of BAM8-22 by Fluo4-dye based FLIPR assay
Numbers only, as −log10 of the molar value.

Example molecules with recorded pEC50:
cpdSmiles	valueType	measuredNumber
O=C(Nc1ccccc1OCC1CC1)c1ccccc1NS(=O)(=O)C1CC1	pEC50	5.87
CCOc1ccccc1NC(=O)c1cc(F)ccc1NS(=O)(=O)CC	pEC50	7.01
CCOc1ccc(F)cc1NC(=O)c1cc(C)ccc1NS(=O)(=O)C1CC1	pEC50	7.16
CCS(=O)(=O)Nc1ccc(Cl)cc1C(=O)Nc1ccccc1OCC(F)(F)F	pEC50	6.44
CCOc1ccc(F)cc1NC(=O)c1ccccc1NS(=O)(=O)CC	pEC50	6.55
Cc1ccc(NS(=O)(=O)C2CC2)c(C(=O)Nc2ccccc2OCC(F)(F)F)c1	pEC50	6.43

Please report pEC50 for every entry that follows.
1. CCOc1ccc(NC(=O)c2ccccc2NS(=O)(=O)C2CC2)c(OCC)c1
2. CCS(=O)(=O)Nc1ccccc1C(=O)Nc1ccc(F)cc1OCC(F)(F)F
3. O=C(Nc1ccccc1OC1CCCC1)c1ccccc1NS(=O)(=O)C1CC1
4. CCS(=O)(=O)Nc1ccc(F)cc1C(=O)Nc1ccccc1OCC(F)(F)F

1. 5.96
2. 5.85
3. 5.50
4. 6.36
